# SYSTEM_NAME: T1, farnesylated human PEX19 C-terminal domain (residues 161-299) (human, UniProt P40855 161-299, farnesyl group on Cys296 (CaaX box))
# T1 chain: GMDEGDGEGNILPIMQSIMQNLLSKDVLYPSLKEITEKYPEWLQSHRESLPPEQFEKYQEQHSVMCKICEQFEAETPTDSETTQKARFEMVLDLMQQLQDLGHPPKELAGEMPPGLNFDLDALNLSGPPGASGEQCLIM
# ASSAY_DETAILS: FP; farnesylated PEX19
No end group written: not given here. *: point of attachment. FITC = O=C1OC2(c3ccc(O)cc3Oc3cc(O)ccc32)c2ccc(NC(=S)*)cc21
MEASUREMENT_TYPE: pKd
To interpret pKd, take it as minus log10 of a concentration measured in moles per litre.

Which pKd reading was recorded for the binder {FITC}-AAKAGMNRVFLQRLL [FITC-labelled ALDP peptide (62-AAKAGMNRVFLQRLL-76)] ?
4.44
